Values compiled from patent US11090304B2.

Molecular target: GDP-bound KRAS protein (aa 1-169), containing both G12C and C118A amino acid substitutions (Homo sapiens, UniProt P01116, C118A/G12C)
Sequence (P01116 1-169 isoform P01116-2 G12C/C118A): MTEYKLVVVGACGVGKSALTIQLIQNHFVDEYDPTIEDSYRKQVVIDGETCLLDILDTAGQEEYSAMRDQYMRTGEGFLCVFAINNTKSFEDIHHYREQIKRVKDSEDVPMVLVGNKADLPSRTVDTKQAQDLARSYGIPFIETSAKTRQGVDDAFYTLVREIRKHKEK
Experiment: Coupled nucleotide exchange assay (SOS-mediated, AlphaScreen)
Assay type: biochemical
Settings: 5 min compound pre-incubation
propertyMeasured: Coupled exchange IC50 (5 min)

-- ask # get_value(readout='Coupled exchange IC50 (5 min)', item= C=CC(=O)N1CCN(c2nc(=O)n(-c3c(C)cccc3C3CC3)c3nc(-c4c(O)cccc4F)c(F)cc23)[C@@H](C)C1 [Example 58-13] )
-- reply 0.809 | nda μM

-- ask # get_value(readout='Coupled exchange IC50 (5 min)', item= C=CC(=O)N1CCN(c2nc(=O)n(-c3c(C)ccnc3C(C)C)c3nc(-c4ccccc4F)c(C)cc23)[C@@H](C)C1 [Example 74-2] )
-- reply 0.228 | nda μM

-- ask # get_value(readout='Coupled exchange IC50 (5 min)', item= C=CC(=O)N1CCN(c2nc(=O)n(-c3c(CC)cccc3CC)c3nc(C4CC4)c(Cl)cc23)[C@@H](C)C1 )
-- reply 0.781 µM

-- ask # get_value(readout='Coupled exchange IC50 (5 min)', item= C=CC(=O)N1CCN(c2nc(=O)n(-c3c(CC)cccc3CC)c3nc(N4CCOC(CC)C4)c(Cl)cc23)[C@@H](C)C1 (stereo partly drawn) )
-- reply 89.7 | nda μM

-- ask # get_value(readout='Coupled exchange IC50 (5 min)', item= C=CC(=O)N1CCN(c2nc(=O)n(-c3c(C)ccnc3C(C)C)c3nc(-c4cc(O)cc(Cl)c4Cl)c(F)cc23)[C@@H](C)C1 (single isomer, unassigned) [Example 58-7-2] )
-- reply 0.041 | nda μM

-- ask # get_value(readout='Coupled exchange IC50 (5 min)', item= C=CC(=O)N1CCN(c2nc(=O)n(-c3ncsc3C(C)C)c3nc(-c4ccccc4F)c(Cl)cc23)[C@@H](C)C1 )
-- reply 0.22 | nda μM

###

Molecular target: GDP-bound KRAS protein (aa 1-169), containing both G12C and C118A amino acid substitutions (Homo sapiens, UniProt P01116, C118A/G12C)
Assay: Coupled nucleotide exchange assay (SOS-mediated, AlphaScreen)
Format: biochemical
Details: 5 min compound pre-incubation
Give measured Coupled exchange IC50 (5 min) for each item. Keep answers brief.

-- ask # get_value(readout='Coupled exchange IC50 (5 min)', item= C=CC(=O)N1CCN(c2nc(=O)n(-c3c(CC)ncnc3CC)c3nc(-c4ccc(F)cc4F)c(Cl)cc23)[C@@H](C)C1 )
-- reply 0.225 | nda μM

-- ask # get_value(readout='Coupled exchange IC50 (5 min)', item= C=CC(=O)N1CCN(c2cc(=O)n(-c3ccccc3C(C)C)c3nc(-c4ccccc4F)ccc23)[C@@H](C)C1 )
-- reply 27.2 | nda μM

-- ask # get_value(readout='Coupled exchange IC50 (5 min)', item= C=CC(=O)N1CCN(c2nc(=O)n(-c3c(C)cccc3C(C)C)c3nc(-c4c(O)cccc4Cl)c(F)cc23)[C@@H](C)C1 [Example 68-1] )
-- reply 0.111 | nda μM

###

Give measured Coupled exchange IC50 (5 min) for each item. Keep answers brief.
Target: GDP-bound KRAS protein (aa 1-169), containing both G12C and C118A amino acid substitutions (Homo sapiens, UniProt P01116, C118A/G12C)
Experiment: Coupled nucleotide exchange assay (SOS-mediated, AlphaScreen)
Assay type: biochemical
Conditions: 5 min compound pre-incubation

-- ask # get_value(readout='Coupled exchange IC50 (5 min)', item= C=CC(=O)N1CCN(c2nc(=O)n(-c3c[nH]cc3C(C)C)c3nc(-c4ccccc4F)c(Cl)cc23)[C@@H](C)C1 )
-- reply 0.355 | nda μM

-- ask # get_value(readout='Coupled exchange IC50 (5 min)', item= C=CC(=O)N1CCN(c2nc(=O)n(-c3c(CC)n[nH]c3CC)c3nc(-c4ccccc4F)c(Cl)cc23)[C@@H](C)C1 )
-- reply 0.51 | nda μM

-- ask # get_value(readout='Coupled exchange IC50 (5 min)', item= C=CC(=O)N1CCN(c2nc(=O)n(-c3nc(C)ccc3C(C)C)c3nc(-c4c(O)cccc4F)c(Cl)cc23)[C@@H](C)C1 )
-- reply 12.4 | nda μM

-- ask # get_value(readout='Coupled exchange IC50 (5 min)', item= C=CC(=O)N1CCN(c2nc(=O)n(-c3c(C)cccc3C(C)C)c3nc(-c4c(O)cccc4F)c(F)cc23)C(C)(C)C1 (single isomer, unassigned) )
-- reply 1.15 | nda μM

-- ask # get_value(readout='Coupled exchange IC50 (5 min)', item= C=CC(=O)N1CCN(c2nc(=O)n(-c3cccnc3C(C)(C)C)c3nc(-c4c(O)cccc4F)c(Cl)cc23)[C@@H](C)C1 (single isomer, unassigned) [Example 54-103-1] )
-- reply 0.073 | nda μM

-- ask # get_value(readout='Coupled exchange IC50 (5 min)', item= C=CC(=O)N1CCN(c2nc(=O)n(-c3ccccc3C(C)C)c3nc(-c4c(O)cccc4F)c(F)cc23)[C@@H](C)C1 [Example 57-6] )
-- reply 1.67 | nda μM

-- ask # get_value(readout='Coupled exchange IC50 (5 min)', item= C=CC(=O)N1CCN(c2nc(=O)n(-c3c(C)cnn3C(C)C)c3nc(-c4ccc(F)cc4F)c(Cl)cc23)[C@@H](C)C1 )
-- reply 0.174 | nda μM

-- ask # get_value(readout='Coupled exchange IC50 (5 min)', item= C=CC(=O)N1CCN(c2nc(=O)n(-c3c(C)ncnc3C(C)C)c3nc(-c4cc(F)ccc4F)c(Cl)cc23)[C@@H](C)C1 (single isomer, unassigned) [Example 55-39-2] )
-- reply 0.121 | nda μM

-- ask # get_value(readout='Coupled exchange IC50 (5 min)', item= C=CC(=O)N1CCN(c2nc(=O)n(-c3ccccc3C(C)C)c3nc(-c4c(O)cccc4F)c(F)cc23)[C@@H](C)C1 (single isomer, unassigned) [Example 57-6-2] )
-- reply 0.208 | nda μM

-- ask # get_value(readout='Coupled exchange IC50 (5 min)', item= C=CC(=O)N1CCN(c2nc(=O)n(-c3scnc3C(C)C)c3nc(-c4ccccc4F)c(Cl)cc23)[C@@H](C)C1 )
-- reply 0.067 | nda μM

-- ask # get_value(readout='Coupled exchange IC50 (5 min)', item= C=CC(=O)N1CCN(c2nc(=O)n(-c3cncnc3C(C)(C)C)c3nc(-c4ccccc4F)c(Cl)cc23)[C@@H](C)C1 (single isomer, unassigned) [Example 54-110-2] )
-- reply 0.194 | nda μM

-- ask # get_value(readout='Coupled exchange IC50 (5 min)', item= C=CC(=O)N1CCN(c2nc(=O)n(-c3nccnc3C3CC3)c3nc(-c4c(O)cccc4F)c(F)cc23)[C@@H](C)C1 )
-- reply 0.932 | nda μM

###

Target: GDP-bound KRAS protein (aa 1-169), containing both G12C and C118A amino acid substitutions (Homo sapiens, UniProt P01116, C118A/G12C)
Test: Coupled nucleotide exchange assay (SOS-mediated, AlphaScreen)
Type: biochemical
Conditions: 5 min compound pre-incubation
Give measured Coupled exchange IC50 (5 min) for each item. Keep answers brief.

-- ask # get_value(readout='Coupled exchange IC50 (5 min)', item= C=CC(=O)N1CCN(c2nc(=O)n(-c3c(C)ccnc3C(C)C)c3nc(-c4c(O)cccc4F)c(Cl)cc23)C[C@H]1C (atropisomer, axis not shown; (M)) [Example 129] )
-- reply 0.045 | nda μM

-- ask # get_value(readout='Coupled exchange IC50 (5 min)', item= C=CC(=O)N1CCN(c2nc(=O)n(-c3ccccc3C(F)(F)F)c3cc(-c4ccccc4F)c(Cl)cc23)[C@@H](C)C1 [Example 93] )
-- reply 1.59 | nda μM

-- ask # get_value(readout='Coupled exchange IC50 (5 min)', item= C=CC(=O)N1CCN(c2nc(=O)n(-c3ccccc3C(C)C)c3nc(-c4c(O)cccc4F)c(F)cc23)[C@@H](C)C1 (single isomer, unassigned) [Example 57-6-1] )
-- reply 3.163 | nda μM

-- ask # get_value(readout='Coupled exchange IC50 (5 min)', item= C=CC(=O)N1CCN(c2nc(=O)n(-c3c(C(C)C)nc(OC)nc3C(C)C)c3nc(-c4ccccc4F)c(Cl)cc23)[C@@H](C)C1 [Example 55-37] )
-- reply 0.03 | nda μM

-- ask # get_value(readout='Coupled exchange IC50 (5 min)', item= C=CC(=O)N1CCN(c2nc(=O)n(-c3c(C)ccnc3C(C)C)c3nc(-c4cc(O)ccc4F)c(F)cc23)[C@@H](C)C1 (single isomer, unassigned) [Example 58-5-1] )
-- reply 5.6 | nda μM

-- ask # get_value(readout='Coupled exchange IC50 (5 min)', item= C=CC(=O)N1CCN(c2nc(=O)n(-c3ccccc3C(C)C)c3nc(-c4c(C)noc4C)c(Cl)cc23)[C@@H](C)C1 [Example 54-44] )
-- reply 3.9 | nda μM
